- STUDY TARGET: HsHMGCR (Homo sapiens)
- Construct: HsHMGCR, Uniprot P04035, residues 441–888; His6 (N); TEV cleavage site (N)
- Sequence (P04035 441-888): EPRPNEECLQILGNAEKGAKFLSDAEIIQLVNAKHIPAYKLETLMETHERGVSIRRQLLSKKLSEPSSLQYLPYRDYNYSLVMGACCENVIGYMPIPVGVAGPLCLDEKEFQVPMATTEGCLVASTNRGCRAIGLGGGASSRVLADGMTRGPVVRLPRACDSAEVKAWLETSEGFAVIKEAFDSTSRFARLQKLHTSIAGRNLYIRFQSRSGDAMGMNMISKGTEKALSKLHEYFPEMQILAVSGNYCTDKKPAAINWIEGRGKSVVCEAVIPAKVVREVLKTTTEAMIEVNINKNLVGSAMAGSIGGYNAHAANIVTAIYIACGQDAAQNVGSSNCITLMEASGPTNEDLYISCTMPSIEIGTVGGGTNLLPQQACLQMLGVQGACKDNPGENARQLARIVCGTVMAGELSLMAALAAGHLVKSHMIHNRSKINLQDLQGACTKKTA
- RUN DESCRIPTION: In vitro HMGR assay (NADPH depletion), HsHMGCR
ASSAY READOUT: IC50
Give your result as the value with the unit written after it.

Prompt line: Which IC50 is reported for this molecule? O=C(O)C[C@H](O)C[C@H](O)CCn1c(-c2ccc(F)cc2)c(-c2ccccc2)c(C(=O)Nc2ccccc2)c1C1CCC1
Response line: 890 nM

---

- Tested on: 35 S::AtHMG1 A. thaliana lines
- RUN DESCRIPTION: In planta statin resistance assay, 35 S::AtHMG1 lines
- Format: in vivo
- CONDITIONS: Arabidopsis thaliana; 19 T2 lines combined; read-out: IC50 growth inhibition, 35 S::AtHMG1 lines
ASSAY READOUT: pIC50
One number for each entry, as −log10 of the molar value.

Prompt line: Request: pIC50, test system 35 S::AtHMG1 A. thaliana lines, entry CC(C)c1nc(N(C)S(C)(=O)=O)nc(-c2ccc(F)cc2)c1/C=C/[C@@H](O)C[C@@H](O)CC(=O)O
Response line: 4.34
